Value source: patent US20200317776A1

Molecular target: T1, human TREM2 expressed on cells (human, UniProt Q9NZC2 19-230)
T1 construct: BW5147.G.1.4 cells stably expressing human TREM2 together with Dap12, or endogenous TREM2 of primary human myeloid cells; also called huT2 BW; hTREM2 expressing cell line
T1 sequence: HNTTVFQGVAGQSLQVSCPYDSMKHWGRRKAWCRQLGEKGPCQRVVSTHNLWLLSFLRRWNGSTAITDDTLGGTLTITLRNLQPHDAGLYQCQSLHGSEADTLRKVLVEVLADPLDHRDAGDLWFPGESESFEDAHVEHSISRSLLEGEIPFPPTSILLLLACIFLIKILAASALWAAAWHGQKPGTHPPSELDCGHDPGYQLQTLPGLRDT
Assay: FACS, hTREM2 BW cells
pKd: −log10 of the molar value.
quantityName: pKd

>>> reading("AL2p-47 huIgG1 (antibody, V domains shown) VH: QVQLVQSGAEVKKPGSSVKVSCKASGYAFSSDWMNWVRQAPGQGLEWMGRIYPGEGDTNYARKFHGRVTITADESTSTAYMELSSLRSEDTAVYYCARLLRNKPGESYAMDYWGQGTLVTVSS VL: DVVMTQTPLSLSVTPGQPASISCRTSQSLVHSNAYTYLHWYLQKPGQSPQLLIYKVSNRVSGVPDRFSGSGSGTDFTLKISRVEAEDVGVYYCSQSTRVPYTFGQGTKLEIKR")
8.92
